Tested on: OVCAR-5 ovarian
Assay: NCI tumour cell line growth inhibition, 48 h
readout_label: TGI (µM)
Give bare numbers, in µM.

Solved cases below.
| compound | quantitative_result |
| --- | --- |
| COc1ccc(CC(NC(=O)[C@H](C)NC(=O)CN2CCOCC2)C(=O)N[C@@H](Cc2ccccc2)C(=O)[C@@]2(C)CO2)cc1 (stereo not given in full) | 1.19 |
| OCC#Cc1ccccc1C#Cc1ccc(C#Cc2ccccc2C#CCO)s1 | 46.5 |

Batch of 2 compounds: report TGI for each.
1. Oc1c(I)cc(-c2nc3ccccc3s2)cc1CN(Cc1ccccn1)Cc1ccccn1
2. CC(=O)c1ccc2c(c1)N(CCCN1CCN(CCO)CC1)c1ccccc1C2

Data returned:
53.2
32.1

Where do these numbers come from? They come from PubChem BioAssay (NCI).
